- SYSTEM: soluble guanylate cyclase (sGC) (Rattus norvegicus, UniProt P20595)
- Sequence (P20595 whole entry): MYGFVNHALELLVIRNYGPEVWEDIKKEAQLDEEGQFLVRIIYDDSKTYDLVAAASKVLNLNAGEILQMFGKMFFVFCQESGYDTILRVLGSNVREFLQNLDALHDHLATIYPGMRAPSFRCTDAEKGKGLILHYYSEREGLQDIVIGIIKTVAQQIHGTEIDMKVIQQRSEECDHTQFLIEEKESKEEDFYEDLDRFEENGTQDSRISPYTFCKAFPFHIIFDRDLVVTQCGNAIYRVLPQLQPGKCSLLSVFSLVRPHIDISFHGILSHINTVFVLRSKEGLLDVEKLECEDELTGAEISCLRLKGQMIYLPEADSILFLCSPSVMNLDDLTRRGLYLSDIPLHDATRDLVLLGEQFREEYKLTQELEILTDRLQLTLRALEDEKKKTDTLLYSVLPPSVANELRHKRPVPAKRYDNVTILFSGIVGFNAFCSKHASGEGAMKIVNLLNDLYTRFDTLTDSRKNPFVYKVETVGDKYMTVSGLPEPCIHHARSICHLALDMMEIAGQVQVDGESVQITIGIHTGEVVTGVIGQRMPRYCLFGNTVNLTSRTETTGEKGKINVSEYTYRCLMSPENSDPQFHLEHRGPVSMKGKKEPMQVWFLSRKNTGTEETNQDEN
- Sequence (P19686 whole entry partner): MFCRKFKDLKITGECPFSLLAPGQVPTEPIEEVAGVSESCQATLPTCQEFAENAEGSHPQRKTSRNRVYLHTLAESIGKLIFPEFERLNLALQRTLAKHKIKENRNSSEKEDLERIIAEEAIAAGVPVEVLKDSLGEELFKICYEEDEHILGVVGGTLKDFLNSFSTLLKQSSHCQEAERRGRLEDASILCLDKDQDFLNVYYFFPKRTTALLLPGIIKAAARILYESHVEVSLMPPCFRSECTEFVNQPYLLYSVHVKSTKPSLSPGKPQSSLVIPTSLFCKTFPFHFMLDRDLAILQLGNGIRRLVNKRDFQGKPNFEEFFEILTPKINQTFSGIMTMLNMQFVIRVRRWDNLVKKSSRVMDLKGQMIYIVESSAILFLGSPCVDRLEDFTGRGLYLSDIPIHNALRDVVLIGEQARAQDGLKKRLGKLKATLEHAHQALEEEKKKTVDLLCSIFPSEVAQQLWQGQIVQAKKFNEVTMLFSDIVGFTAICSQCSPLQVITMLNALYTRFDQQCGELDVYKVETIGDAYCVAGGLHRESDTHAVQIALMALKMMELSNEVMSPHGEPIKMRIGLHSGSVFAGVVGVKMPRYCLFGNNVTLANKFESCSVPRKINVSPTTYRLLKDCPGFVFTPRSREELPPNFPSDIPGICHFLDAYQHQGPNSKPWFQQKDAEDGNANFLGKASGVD
- METHOD NOTES: Activating action at the sGC enzyme in vitro (PPi detection, luciferase)
- TEST PARAMETERS: read-out: EC50 (concentration at 50% of maximum efficacy), activating action at the sGC enzyme
MEASURE: EC50 (µM)
Your answer is read as µM, so omit the unit and give the number.

Record excerpt, results attached:
COMPOUND: O=C(Nc1cccc(CC2(C(=O)O)CC2)c1)[C@H](c1ccc(CN2N=C(c3ccccc3)OCC2=O)cc1)C1CCCC1 [Example 204]
UNIT ANNOTATION: µM
EC50: 0.018
//
COMPOUND: O=C(Nc1cccc(CC2(C(=O)O)CC2)c1)C(c1ccc(Cn2ccc(C(F)(F)F)cc2=O)cc1)C1CCCC1 (centres unmarked) [Example 176]
UNIT ANNOTATION: µM
EC50: 0.32
//
COMPOUND: C[C@@H]([C@@H](C(=O)Nc1cccc(CC2(C(=O)O)CC2)c1)c1ccc(CN2Cc3c(F)cccc3C2=O)cc1)C(F)(F)F [Example 220]
UNIT ANNOTATION: µM
EC50: 0.075
//
COMPOUND: CCC(C(C(=O)Nc1cccc(CC2(C(=O)O)CC2)c1)c1ccc(CN2N=C(c3ccccc3)OCC2=O)cc1)C(F)(F)F (centres unmarked) [Example 170]
UNIT ANNOTATION: µM
EC50: 0.011
//
COMPOUND: CC1(C(=O)O)Cc2cccc(NC(=O)C(c3ccc(CN4N=C(c5ccccc5)OCC4=O)cc3)C3CCCC3)c2C1 (single isomer, unassigned) [Example 46]
UNIT ANNOTATION: µM
EC50: 0.13
//
COMPOUND: O=C(O)CCc1cc(F)cc(NC(=O)C(c2ccc(CN3N=C(c4ccccc4)OCC3=O)cc2)C2CCCC2)c1 (centres unmarked) [Example 230]
UNIT ANNOTATION: µM
EC50: 0.42
//
COMPOUND: CC(C(C(=O)Nc1cccc(CCC(=O)O)c1Cl)c1ccc(CN2N=C(c3ccccc3)OCC2=O)cc1)C(F)(F)F (centres unmarked) [Example 184]
UNIT ANNOTATION: µM
EC50: 0.24
//
COMPOUND: O=C(Nc1cccc(CC2(C(=O)O)CC2)c1)C(c1ccc(CN2N=C(c3ccccc3)OCC2=O)cc1)C1CCC(F)(F)C1 (single isomer, unassigned) [Example 241]
UNIT ANNOTATION: µM
EC50: 0.017

Given item CC(C(C(=O)Nc1cc(CC2(C(=O)O)CC2)ccc1F)c1ccc(CN2N=C(c3ccccc3)OCC2=O)cc1)C(F)(F)F (centres unmarked) [Example 186] , the value recorded as its EC50 is 0.0015

The reported EC50 of the compound O=C(O)CCc1cc(NC(=O)C(c2ccc(CN3N=C(c4ccccc4)OCC3=O)cc2)C2CCCC2)ccc1F (centres unmarked) [Example 232] was 1.1

Sample CC(CC(F)(F)F)C(C(=O)Nc1cccc(CC2(C(=O)O)CC2)c1)c1ccc(CN2N=C(c3ccccc3)OCC2=O)cc1 (single isomer, unassigned) [Example 160] ; EC50 observed: 0.035
